Biological target: SB-204269 binding site
Test: Inhibition of [3H]SB-204269 binding in rat forebrain
Assay type: tissue-based
Log Ki reference
Enter the number alone.

1. COc1ccc(Cl)cc1C(=O)Nc1cccc2c1CCN(C)C2 | -7
2. COc1ccccc1C(=O)Nc1cccc2c1CCN(C)C2 | -5.8
3. COc1cc([N+](=O)[O-])c(Cl)cc1C(=O)Nc1cccc2c1CCN(C)C2 | -6.8
4. COc1c(Cl)cc(Cl)cc1C(=O)Nc1cccc2c1CCN(C)C2 | -5.4

Now let's try a different one.
[in] Tell me reported Log Ki for COc1cc(C(C)(C)C)ccc1C(=O)Nc1ccc2c(c1)CCN(C)C2 , tested with SB-204269 binding site.
[out] -6.4

---

Recorded Log Ki by entry
Target: SB-204269 binding site
Assay: Inhibition of [3H]SB-204269 binding in rat forebrain
Format: tissue-based
Enter a number only.

Worked cases, answers included:
1) CCc1ccc(C(=O)Nc2cccc3c2CCN(C)C3)c(OC)c1 | -7.3
2) CN1CCc2c(cccc2NC(=O)c2ccc(C(C)(C)C)cc2)C1 | -6
3) COc1cc(C(C)(C)C)ccc1C(=O)Nc1ccc2c(c1)CN(C)CC2 | -7.6

[in] Requested field: Log Ki. Item: COc1cc(C)c(Cl)cc1C(=O)Nc1cccc2c1CCN(C)C2
[out] -7.6

[in] I am curious: what Log Ki value has been reported for CCc1cc(OC)c(C(=O)Nc2cccc3c2CCN(C)C3)cc1Cl ?
[out] -7.9

---

Molecular target: SB-204269 binding site
Test: Inhibition of [3H]SB-204269 binding in rat forebrain
Assay type: tissue-based
The reader will find reported Log Ki values listed item by item below.
Answer with a bare number; do not write a unit.

Some solved entries appear below for comparison.
1. COc1cc(N)c(Cl)cc1C(=O)Nc1cccc2c1CN(C)CC2 | -6.1
2. COc1cc(C(C)(C)C)c(Cl)cc1C(=O)Nc1cccc2c1CCN(C)C2 | -6.9
3. COc1ccc(Cl)cc1C(=O)Nc1ccc2c(c1)CN(C)CC2 | -7.2

[in] # lookup: Log Ki of COc1cc(C(C)(C)C)ccc1C(=O)Nc1cccc2c1CCN(C)C2
[out] -7.7

[in] Param item = COc1cc(Cl)ccc1C(=O)Nc1cccc2c1CCN(C)C2 ; retrieve measured Log Ki.
[out] -6.1

[in] Dear colleague, I am looking for the recorded Log Ki of the following compound: COc1cc(N)c(Cl)cc1C(=O)Nc1cccc2c1CCN(C)C2
[out] -7.8

---

Species: Mus musculus
Assay: Anticonvulsant activity was determined in mouse maximal electroshock seizure threshold (MEST) model at 1 hour post dose.
Assay type: functional
recorded metric: Increase (%)
Write the answer as a number in %, unit excluded.

[in] For COc1cc(C(C)(C)C)ccc1C(=O)Nc1cccc2c1CCN(C)C2 , what is its reported Increase?
[out] 140

[in] Given the compound COc1cc(N)c(Cl)cc1C(=O)Nc1cccc2c1CCN(C)C2 , what is its reported Increase?
[out] 25

[in] Given the entry COc1cc(C)c(Cl)cc1C(=O)Nc1cccc2c1CCN(C)C2 , report its measured Increase.
[out] 50

[in] Entry COc1ccc(Cl)cc1C(=O)Nc1ccc2c(c1)CN(C)CC2 : reported Increase = ?
[out] 4

[in] Query: Increase; subject: COc1cc(C(C)(C)C)ccc1C(=O)Nc1ccc2c(c1)CCN(C)C2
[out] 4

[in] // Increase lookup, key: COc1ccc(Cl)cc1C(=O)Nc1cccc2c1CCN(C)C2
[out] 20

[in] What does the data say about its Increase? Entry: CCc1ccc(C(=O)Nc2cccc3c2CCN(C)C3)c(OC)c1
[out] 60

[in] Please give the measured Increase for this compound: CCc1cc(OC)c(C(=O)Nc2cccc3c2CCN(C)C3)cc1Cl
[out] 100

[in] # query: Increase of entry COc1cc(C(C)(C)C)ccc1C(=O)Nc1ccc2c(c1)CN(C)CC2
[out] 130

Entry source: ChEMBL document CHEMBL1131352
